# System Tested: T1, SYNJ2BP, P57105
# T1 sequence (P57105 8-110, limits assumed, looked up): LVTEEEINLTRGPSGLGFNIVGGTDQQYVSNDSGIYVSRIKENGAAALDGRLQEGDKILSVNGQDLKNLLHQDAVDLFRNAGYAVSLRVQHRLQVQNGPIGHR
# Experiment Description: holdup assay
# Parameters: key: below the threshold = too weak to quantify, mostly under pKd 3.1 to 4
# Assay Conditions: plain residues with an end cap or a label only (N-terminal biotin on a linker: ado-ado)
Measurement Label: pKd

| Binder | Measurement Label | Value Observed |
| --- | --- | --- |
| PKSNSSKEYV [CLDN7, O95471] | pKd | below the threshold |
| TKDKVQETQI [LRRC4, Q9HBW1] | pKd | 4.75 |
| DLLGGGSDSI [TNRC6B, Q9UPQ9] | pKd | below the threshold |
| IGHEDLETAV [DGKI, O75912] | pKd | 5.25 |
